B1: CPEB3 Ribozyme (parent)
chain: UAACAGGGGGCCACAGCAGAAGCGUUCACGUCGCAGCCCCUGUCAGAUUCUGGUGAAUCUGCGAAUUCUGCUGUAUAUCUC

Variants of: B1
Assay: self-cleavage, relative activity (ratio to wild type); higher = more cleavage; in vitro, sequencing
endpoint_label: self-cleavage
Write the number on its own, no unit after it.

Observe how each entry below is paired with its result.
| sequence_entry | self-cleavage |
| --- | --- |
| UAACAGGGGGCCACAGCAAAAGCGUUCACGUCGCAGCCCCUGUCAGAUUCUGGUGAAUCUGCGAGUUCUGCUGUAUAUCUC [G19A A65G] | 0.51 |
| UAACAAGGGGCCACAGCAGAAGCGUUCACGCCGCAGCCCCUGUCAGAUUCUGGUGAAUCUGCGAAUUCUGCUGUAUAUCUC [G6A U31C] | 0.34 |
| UAACAGGGGGCCACAGCAGAAGCGUUCACGUCGCAGCCCCUGUCAGAUUCAGGUGAAUCUGCGAAUUAUGCUGUAUAUCUC [U51A C68A] | 0.4 |
| UAACAGGGGUCCACAGCAGAGGCGUUCACGUCGCAGCCCCUGUCAGAUUCUGGUGAAUCUGCGAAUUCUGCUGUAUAUCUC [G10U A21G] | 0.08 |
| UAACAGGGGUCCACAGCAGAAGCGUCCACGUCGCAGCCCCUGUCAGAUUCUGGUGAAUCUGCGAAUUCUGCUGUAUAUCUC [G10U U26C] | 0.28 |
| UAACAGGGGGCCACAGCAGAAGCGUUCACGUCGCAGCCCCUGUCAGAUUCAGAUGAAUCUGCGAAUUCUGCUGUAUAUCUC [U51A G53A] | 1.27 |
| UAACAGGGGGCCACAGCAGAAGCGUUCGCGUCGCAGCCCCUGUCAGAUUCUGGUGAAUCUGCGAAUUCUGCCGUAUAUCUC [A28G U72C] | 0.67 |
| CAACAGGGGGCCACAGCAGAAGCGUUCACGUCGCAGCCCCUGUCAGAUUCUGGUGAAUCUGUGAAUUCUGCUGUAUAUCUC [U1C C62U] | 0.32 |

Ask | Consider the variant shown here: UAACAGGGGGCCAUAGCAGAAGCGUUCACGUCGCAGCCCCUGUCAGAUUCAGGUGAAUCUGCGAAUUCUGCUGUAUAUCUC [C14U U51A] What is its recorded self-cleavage?
Reply | 1.24

Ask | What does the data say about its self-cleavage? Entry: UAACAGGGGGCCACAGCAGAAGCGUUCACGUCGCAGCCCCUGUCAGAUUCAGGUGAAUCUGCGAAUGCUGCUGUAUAUCUC [U51A U67G]
Reply | 0.43

Ask | Please report the recorded self-cleavage for UAACAGGGGGCCAGAGCAGAAGCGUUCACGUCGCAGCCCCUGUCAGACUCUGGUGAAUCUGCGAAUUCUGCUGUAUAUCUC [C14G U48C] .
Reply | 0.47

Ask | Need self-cleavage of UAACAGGGGGCCACAGCAGAAGCGUUCACGUCGCAGCCCCUGUCAGAUUCUGGUGAAUCUGCGGGUUCUGCUGUAUAUCUC [A64G A65G] , thanks.
Reply | 0.28

Ask | Please report the recorded self-cleavage for UAGCAGGGGGCCACAGCAUAAGCGUUCACGUCGCAGCCCCUGUCAGAUUCUGGUGAAUCUGCGAAUUCUGCUGUAUAUCUC [A3G G19U] .
Reply | 0.41

Ask | If you can, please state the reported self-cleavage value of UAACUGGGGGCCACAGCAGAAGCGUUCACGUCGCAGCCCCUGUCAGAUUCUGGUGAAUCUGCGAAAUCUGCUGUAUAUCUC [A5U U66A] .
Reply | 0.46
